Read-out: Vascular endothelial growth factor receptor 2 (Homo sapiens) (UniProt P35968)
Test: BSK_4H_VEGFRII: BioMAP Diversity Plus: 4H Assay for Vascular endothelial growth factor receptor 2 (VEGFR2) Biomarker Activity (AID 2283031)
Conditions: primary human endothelial cells (HUVEC); actives raise or lower the signal
Calls of active or inactive are those of the source. Rule for the calls: active = hit-call score of the fitted dose curve at least 0.9, where 1 is the maximum; inactive = score below 0.9.
Response enum: active, inactive

These recorded examples may help you get a feel for the data.
| MOLECULE | ASSIGNED LABEL |
| --- | --- |
| CCCCCCC(O)CCCCCCCCCCC(=O)OC (stereo unspecified) | inactive |
| CCCCCCCCCCC1CO1 (stereo unspecified) | active |
| CCCCCCCCCCCCCCCCCC[N+](C)(C)C | active |
| Cc1cccnc1 | inactive |

Test call for this molecule, please: `CCC(C)=NO`
inactive

Test call for this molecule, please: `COC(=O)/C=C\C(=O)OC`
inactive

Test call for this molecule, please: `Cc1cc(-n2nc3ccc(Cl)cc3n2)c(O)c(C(C)(C)C)c1`
inactive

====

Test: TOX21_p53_BLA_p2_viability: Viability Assessment in the Tox21 HCT-116 p53 Agonism Beta-lactamase Assay, Phase 2 (AID 2283591);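 note: compound exposure lasted 16 h at 37 °C; actives lower the ATP signal meaning cytotoxicity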
Records with an inconclusive call do not appear. Calls of active or inactive are those of the source. How the source made its calls: active means hit-call score of the fitted dose curve at least 0.9, where 1 is the maximum; inconclusive means response in the unintended direction; inactive means score below 0.9.
Response enum: active, inactive

| COMPOUND | ASSIGNED LABEL |
| --- | --- |
| CC(=O)Oc1ccc(C(c2ccc(OC(C)=O)cc2)c2ccccn2)cc1 | inactive |
| CCCCC(CC)CN1CN(CC(CC)CCCC)CC(C)(N)C1 (configuration not stated) | inactive |
| CCN(O)CC | inactive |
| CC1CCc2cc(F)cc3c(=O)c(C(=O)O)cn1c23 (configuration not stated) | inactive |
| O=C(O)CCCCCC(=O)O | inactive |

Test call for this compound, please: `N#Cc1ccc(C(=O)O)cc1`
inactive

Test call for this compound, please: `NS(=O)(=O)c1cc2c(cc1Cl)NC=NS2(=O)=O`
inactive

====

Biological target: Thyroid hormone receptor alpha (Rattus norvegicus) + Thyroid hormone receptor beta (Rattus norvegicus) (UniProt P18113+P63059)
Sequence (P63059 whole entry, looked up): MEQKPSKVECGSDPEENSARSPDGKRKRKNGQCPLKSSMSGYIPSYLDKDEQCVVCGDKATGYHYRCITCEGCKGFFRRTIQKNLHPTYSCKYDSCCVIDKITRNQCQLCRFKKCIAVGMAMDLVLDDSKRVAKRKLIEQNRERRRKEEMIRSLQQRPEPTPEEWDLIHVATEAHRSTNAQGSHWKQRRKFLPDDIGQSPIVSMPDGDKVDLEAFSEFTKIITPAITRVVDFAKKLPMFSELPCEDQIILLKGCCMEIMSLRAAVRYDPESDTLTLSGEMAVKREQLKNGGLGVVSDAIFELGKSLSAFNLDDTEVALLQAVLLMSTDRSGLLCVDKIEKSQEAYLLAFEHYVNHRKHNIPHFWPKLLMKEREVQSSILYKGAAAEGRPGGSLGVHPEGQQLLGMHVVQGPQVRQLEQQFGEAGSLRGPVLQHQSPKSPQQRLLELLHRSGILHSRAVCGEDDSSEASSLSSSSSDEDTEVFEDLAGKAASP
Sequence (P18113 whole entry, looked up): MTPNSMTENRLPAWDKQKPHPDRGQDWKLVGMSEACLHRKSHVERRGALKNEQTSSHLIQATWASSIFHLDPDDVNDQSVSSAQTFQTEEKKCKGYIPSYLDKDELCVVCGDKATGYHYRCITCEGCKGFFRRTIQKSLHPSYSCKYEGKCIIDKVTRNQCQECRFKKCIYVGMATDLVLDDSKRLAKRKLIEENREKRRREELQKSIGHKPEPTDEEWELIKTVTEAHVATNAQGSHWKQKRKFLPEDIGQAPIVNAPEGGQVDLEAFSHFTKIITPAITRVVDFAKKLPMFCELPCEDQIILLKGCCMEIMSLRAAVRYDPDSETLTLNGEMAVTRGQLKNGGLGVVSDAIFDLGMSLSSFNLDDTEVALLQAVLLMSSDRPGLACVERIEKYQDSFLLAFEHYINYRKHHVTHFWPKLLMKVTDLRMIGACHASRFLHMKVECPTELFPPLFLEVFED
Test: TOX21_TR_LUC_GH3_Agonist_Followup: Tox21 GH3 Thyroid Hormone Receptor Agonism Luciferase Follow-Up Assay (AID 2283939)
Inconclusive results are not listed. The source made the active and inactive calls. The calls were made as follows: active = hit-call score of the fitted dose curve at least 0.9, where 1 is the maximum; inconclusive = response in the unintended direction; inactive = score below 0.9.
Response enum: class 1 = active, class 0 = inactive

| SMI | ASSIGNED LABEL |
| --- | --- |
| NCC(=O)CCC(=O)O | class 1 |

Test call for this compound, please: `CC(C)(C)CC(C)(C)c1ccc(O)c(Cc2ccc(Cl)cc2Cl)c1`
class 1

Test call for this compound, please: `CSCC[C@H](NC(=O)[C@H](Cc1ccc(OS(=O)(=O)O)cc1)NC(=O)[C@@H](N)CC(=O)O)C(=O)NCC(=O)N[C@@H](Cc1c[nH]c2ccccc12)C(=O)N[C@@H](CCSC)C(=O)N[C@@H](CC(=O)O)C(=O)N[C@@H](Cc1ccccc1)C(N)=O`
class 0

Test call for this compound, please: `Cc1cc(-n2c(=O)[nH]c(=O)n(C)c2=O)ccc1Oc1ccc(S(=O)(=O)C(F)(F)F)cc1`
class 0

====

Target: Cellular tumor antigen p53 (Homo sapiens) (UniProt P04637)
Sequence (P04637 whole entry, looked up): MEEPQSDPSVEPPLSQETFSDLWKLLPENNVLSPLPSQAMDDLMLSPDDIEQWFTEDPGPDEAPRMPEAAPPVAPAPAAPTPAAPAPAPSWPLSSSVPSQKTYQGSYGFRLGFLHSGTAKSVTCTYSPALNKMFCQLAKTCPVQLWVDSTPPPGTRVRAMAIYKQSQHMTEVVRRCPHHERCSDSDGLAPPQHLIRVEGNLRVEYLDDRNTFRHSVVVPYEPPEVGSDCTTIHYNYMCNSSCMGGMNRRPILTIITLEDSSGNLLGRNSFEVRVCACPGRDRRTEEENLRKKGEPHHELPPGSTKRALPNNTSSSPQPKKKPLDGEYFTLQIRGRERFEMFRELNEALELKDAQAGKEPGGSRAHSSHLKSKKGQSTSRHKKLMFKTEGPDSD
Assay: TOX21_p53_BLA_p2_ratio: Tox21 HCT-116 p53 Agonism Beta-lactamase Assay, Ratio, Phase 2 (AID 2283592)
Inconclusive results are not listed. Calls of active or inactive are those of the source. Rule for the calls: active = hit-call score of the fitted dose curve at least 0.9, where 1 is the maximum; inconclusive = response in the unintended direction; inactive = score below 0.9.
PROPERTY NAME: AC50

| MOLECULE | AC50 |
| --- | --- |
| CCCCOC(=O)CC | inactive |
| O=C(O)c1ccccc1OP(=O)(O)O | inactive |
| CC(C)(C)NCC(O)CSc1nc(-c2ccc(C(N)=O)s2)cs1 (stereo unspecified) | inactive |
| CN1CCN(C(=O)C2CCCCC2)CC1 | inactive |
| CN1[C@@H]2CCC[C@H]1CC(NC(=O)c1nn(C)c3ccccc13)C2 (stereo partly specified) | inactive |

Now for another entry.
Give the observed AC50 of `CC(C)=CCOc1ccc(/C=C/C(=O)c2ccc(OCC=C(C)C)cc2OCC(=O)O)cc1` for Cellular tumor antigen p53 (Homo sapiens) (UniProt P04637).
6.92 µM (active)
